assayed.target: T1, Glutathione S-transferase (GST)-tagged AITR (human, UniProt Q9Y5U5 26-139)
T1 construct: also called GST-AITR antigen; GST-AITR analyte; not shown: Glutathione S-transferase (GST) tag
T1 sequence (looked up): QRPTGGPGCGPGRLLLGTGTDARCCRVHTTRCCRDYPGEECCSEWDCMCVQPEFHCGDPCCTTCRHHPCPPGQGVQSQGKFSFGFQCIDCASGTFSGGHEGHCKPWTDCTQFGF
assay.comment: SPR, Fab against the AITR antigen
Ka for assorted binders
Quick reminder: number only, in M⁻¹, skip the unit.

Reported Ka for Parental IRTCA-A Fab (Fab, V domains shown) VH: QVQLVQSGTQVKMPGASVKVSCKASGYTFDDYGIGWVRQAPGQGLEWMGWISPYTHRTNSSPKLQDRVTMTTDTSTSTAYMELRSLRSDDTAVYYCARDGTYYDFWSGYFDNGAFDIWGQGTLVTVSS VL: QSVVTQPPSVSAAPGQKVTISCSGSTSNIGNNYVSWYQQLPGTAPKLLIYDNYKRPSGIPDRFSGSKSGTSATLGITGLRTGDEADYFCGTWDSSLNAWVFGGGTKLTVL was 8.74e+06

Kindly note the recorded Ka for IRTCA-A12 (Clone H2A10) Fab (Fab, V domains shown) VH: QVQLVQSGTQVKMPGASVKVSCKASGYTFDDYGIGWVRQAPGQGLEWMGWISPYTHRTNSSPKLQDRVTMTTDTSTSTAYMELRSLRSDDTAVYYCARDGTYYDFWSGYFDNATFDFWGQGTLVTVSS VL: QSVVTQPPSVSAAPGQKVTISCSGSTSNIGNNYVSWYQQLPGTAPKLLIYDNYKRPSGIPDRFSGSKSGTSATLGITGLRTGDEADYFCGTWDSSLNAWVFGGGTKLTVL , which is 2.42e+08

Please fill in: Ka reported for IRTCA-A10 (Clone H1A10) Fab (Fab, V domains shown) VH: QVQLVQSGTQVKMPGASVKVSCKASGYTFDDYGIGWVRQAPGQGLEWMGWISPYTHRTNSSPKLQDRVTMTTDTSTSTAYMELRSLRSDDTAVYYCARDGTYYDFWSGYFDNAAFDSWGQGTLVTVSS VL: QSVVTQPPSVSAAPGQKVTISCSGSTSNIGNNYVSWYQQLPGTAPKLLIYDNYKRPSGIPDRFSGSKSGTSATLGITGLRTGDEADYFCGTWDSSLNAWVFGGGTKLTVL = 7.34e+07
